# TEST_SYSTEM: Tyrosine-protein kinase Lyn (Homo sapiens, UniProt P07948)
# Sequence (P07948 2-512 limits assumed): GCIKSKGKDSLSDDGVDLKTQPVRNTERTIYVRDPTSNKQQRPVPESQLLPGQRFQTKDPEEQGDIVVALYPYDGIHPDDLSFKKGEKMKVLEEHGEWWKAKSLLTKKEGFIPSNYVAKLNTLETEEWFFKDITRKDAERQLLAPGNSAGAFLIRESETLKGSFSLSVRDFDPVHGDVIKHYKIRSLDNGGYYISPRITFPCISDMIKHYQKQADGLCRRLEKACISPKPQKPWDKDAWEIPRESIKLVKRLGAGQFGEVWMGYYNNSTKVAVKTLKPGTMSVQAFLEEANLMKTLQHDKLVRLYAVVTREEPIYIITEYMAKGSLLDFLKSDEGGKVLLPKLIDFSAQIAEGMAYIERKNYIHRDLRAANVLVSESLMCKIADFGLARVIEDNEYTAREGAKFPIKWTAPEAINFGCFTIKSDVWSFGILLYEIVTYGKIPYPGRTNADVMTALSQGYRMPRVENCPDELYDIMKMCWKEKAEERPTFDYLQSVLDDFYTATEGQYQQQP
# TEST: Inhibition of LYN at 30 uM by microfluidic mobility shift assay
ENDPOINT_LABEL: inhibition (%)

Reference set (5 entries):
INSERT INTO measurements (chemical_structure, unit_annotation, observed) VALUES
  ('COc1ccc(-c2cc3c(c(N)nn3C)c(=O)[nH]2)cc1', '%', 49),
  ('Cc1cc2nc(-c3ccccc3)nc(N)c2c(=O)[nH]1', '%', 23),
  ('Cc1cc2nc(N)nc(N)c2c(=O)[nH]1', '%', 10),
  ('Cn1nc(N)c2c(=O)[nH]c(-c3ccccc3)cc21', '%', 22),
  ('Cc1cc2c(c(N)nn2C)c(N2CCCCC2)n1', '%', 11);

(I) Cc1cc2[nH]nc(N)c2c(N2CCOCC2)n1
(II) Cn1nc(N)c2cnc(-c3ccccc3)cc21
Of I versus II , which is the one with smaller reported inhibition? // output: label of the selected item
II
(II: 7%, I: 51%)

====

# TEST_SYSTEM: Ribosomal protein S6 kinase alpha-1 (Homo sapiens) (UniProt Q15418)
# Sequence (Q15418 whole entry): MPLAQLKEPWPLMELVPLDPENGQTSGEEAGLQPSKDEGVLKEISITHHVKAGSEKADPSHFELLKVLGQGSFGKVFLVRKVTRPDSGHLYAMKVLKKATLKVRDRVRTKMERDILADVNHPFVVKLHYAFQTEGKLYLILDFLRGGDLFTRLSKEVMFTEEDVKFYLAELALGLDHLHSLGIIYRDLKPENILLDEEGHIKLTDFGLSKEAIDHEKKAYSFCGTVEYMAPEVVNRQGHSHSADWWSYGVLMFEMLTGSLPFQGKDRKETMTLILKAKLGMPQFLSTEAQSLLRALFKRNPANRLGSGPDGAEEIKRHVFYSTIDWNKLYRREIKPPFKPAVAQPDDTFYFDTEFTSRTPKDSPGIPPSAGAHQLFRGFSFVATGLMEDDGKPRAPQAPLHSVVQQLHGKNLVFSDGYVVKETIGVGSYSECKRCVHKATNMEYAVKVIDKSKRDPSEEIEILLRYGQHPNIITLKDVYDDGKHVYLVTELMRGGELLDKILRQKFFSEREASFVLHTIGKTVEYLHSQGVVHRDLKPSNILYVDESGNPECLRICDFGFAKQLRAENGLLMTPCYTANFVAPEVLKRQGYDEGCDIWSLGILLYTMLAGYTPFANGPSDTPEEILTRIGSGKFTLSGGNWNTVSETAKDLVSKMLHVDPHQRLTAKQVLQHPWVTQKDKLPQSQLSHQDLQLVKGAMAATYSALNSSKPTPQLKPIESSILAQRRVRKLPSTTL
# TEST: Inhibition of RSK1 at 30 uM by microfluidic mobility shift assay
ENDPOINT_LABEL: inhibition (%)

Reference set (3 entries):
INSERT INTO results (chemical_structure, unit_annotation, observed) VALUES
  ('CN1CCN(c2ccc(-c3cc4c(c(N)nn4C)c(=O)[nH]3)cc2)CC1', '%', 14),
  ('Nc1c2cnc(-c3ccccc3)cc2nn1-c1ccccc1', '%', -3),
  ('Cc1cc2c(c(N)nn2C)c(N2CCOCC2)n1', '%', 1);

(A) Nc1n[nH]c2cc(-c3ccncc3)[nH]c(=O)c12
(B) Cc1cc2[nH]nc(N)c2c(N2CCCCC2)n1
Of A versus B , which is the one with smaller reported inhibition? // output: label of the selected item
A

====

# TEST_SYSTEM: Proto-oncogene tyrosine-protein kinase Src (Homo sapiens, UniProt P12931)
# Sequence (P12931 2-536 limits assumed): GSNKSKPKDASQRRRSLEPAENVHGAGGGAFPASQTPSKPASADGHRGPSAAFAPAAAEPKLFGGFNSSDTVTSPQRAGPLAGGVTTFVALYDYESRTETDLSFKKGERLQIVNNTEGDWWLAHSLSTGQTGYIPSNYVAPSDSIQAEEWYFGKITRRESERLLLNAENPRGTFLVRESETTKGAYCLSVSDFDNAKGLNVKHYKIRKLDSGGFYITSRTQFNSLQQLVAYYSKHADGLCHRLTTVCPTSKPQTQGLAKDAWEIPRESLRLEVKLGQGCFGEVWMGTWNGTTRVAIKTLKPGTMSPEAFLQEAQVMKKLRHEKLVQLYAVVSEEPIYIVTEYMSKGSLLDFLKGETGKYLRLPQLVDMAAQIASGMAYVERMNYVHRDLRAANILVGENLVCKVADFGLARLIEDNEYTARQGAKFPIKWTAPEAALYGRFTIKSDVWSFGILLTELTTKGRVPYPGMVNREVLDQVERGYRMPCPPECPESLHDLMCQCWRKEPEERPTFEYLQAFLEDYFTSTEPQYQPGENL
ENDPOINT_LABEL: IC50 (µM)
Number in µM, nothing else.

IC50 reading for CN1CCN(c2ccc(-c3cc4c(c(N)nn4C)c(=O)[nH]3)cc2)CC1 : 7.7

====

# TEST_SYSTEM: Serine/threonine-protein kinase Chk1 (Homo sapiens) (UniProt O14757)
# Sequence (O14757 whole entry): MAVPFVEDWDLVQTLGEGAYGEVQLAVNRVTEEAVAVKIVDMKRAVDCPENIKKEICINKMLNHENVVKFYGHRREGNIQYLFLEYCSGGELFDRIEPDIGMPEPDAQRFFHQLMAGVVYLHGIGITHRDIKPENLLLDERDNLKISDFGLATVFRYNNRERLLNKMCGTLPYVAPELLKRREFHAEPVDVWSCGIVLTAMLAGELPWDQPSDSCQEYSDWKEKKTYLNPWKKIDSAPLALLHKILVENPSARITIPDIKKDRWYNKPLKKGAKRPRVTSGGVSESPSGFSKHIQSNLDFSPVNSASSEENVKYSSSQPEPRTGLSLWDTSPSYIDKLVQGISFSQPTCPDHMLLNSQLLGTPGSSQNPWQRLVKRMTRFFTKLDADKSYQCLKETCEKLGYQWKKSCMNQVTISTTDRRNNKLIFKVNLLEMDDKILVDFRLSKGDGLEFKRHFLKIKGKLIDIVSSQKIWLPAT
# TEST: Inhibition of CHK1 at 30 uM by microfluidic mobility shift assay
ENDPOINT_LABEL: inhibition (%)

INSERT INTO measurements (chemical_structure, endpoint_label, observed) VALUES
  ('COc1cccc(-c2cc3[nH]nc(N)c3c(=O)[nH]2)c1', 'inhibition', 13),
  ('Nc1c2cnc(-c3ccccc3)cc2nn1-c1ccccc1', 'inhibition', 6);

(1) Nc1n[nH]c2cc(CC3CCNCC3)[nH]c(=O)c12
(2) COc1ccccc1-c1cc2nn(-c3ccccc3)c(N)c2c(=O)[nH]1
(3) Cc1cc2[nH]nc(N)c2c(=O)[nH]1
# ascending order, key=inhibition Field: ranking. Enter the labels in the order requested.
2, 3, 1
(2: 3%, 3: 7%, 1: 16%)

====

# TEST_SYSTEM: Tyrosine-protein kinase Lck (Homo sapiens, UniProt P06239)
# Sequence (P06239 2-509 limits assumed): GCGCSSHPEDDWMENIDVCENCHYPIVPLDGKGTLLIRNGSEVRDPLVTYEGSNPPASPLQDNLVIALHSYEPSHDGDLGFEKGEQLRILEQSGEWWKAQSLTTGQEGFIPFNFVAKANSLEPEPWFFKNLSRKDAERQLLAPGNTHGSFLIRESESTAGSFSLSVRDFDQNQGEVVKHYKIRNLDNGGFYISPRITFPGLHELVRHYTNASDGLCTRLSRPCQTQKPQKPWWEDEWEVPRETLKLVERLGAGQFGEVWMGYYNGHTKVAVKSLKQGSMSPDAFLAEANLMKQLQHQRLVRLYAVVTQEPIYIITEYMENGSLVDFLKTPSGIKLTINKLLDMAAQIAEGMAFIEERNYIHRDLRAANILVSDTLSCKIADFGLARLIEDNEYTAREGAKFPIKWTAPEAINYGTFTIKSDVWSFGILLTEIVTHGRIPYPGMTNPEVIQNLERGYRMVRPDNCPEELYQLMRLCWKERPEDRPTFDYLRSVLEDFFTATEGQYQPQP
# TEST: Inhibition of LCK at 30 uM by microfluidic mobility shift assay
ENDPOINT_LABEL: inhibition (%)

Reference set (5 entries):
INSERT INTO results (chemical_structure, observed) VALUES
  ('Nc1n[nH]c2cc(-c3ccccn3)[nH]c(=O)c12', 56),
  ('CC(C)(C)c1cc2[nH]nc(N)c2c(=O)[nH]1', 40),
  ('Cc1cc2[nH]ncc2c(=O)[nH]1', 11),
  ('Cc1cc2nn(-c3ccccc3)c(N)c2c(N2CCCCC2)n1', 12),
  ('COc1cccc(-c2cc3c(c(N)nn3C)c(=O)[nH]2)c1', 22);

(1) COCCNc1nc(-c2ccccc2)cc2c1c(N)nn2C
(2) Nc1c2c(=O)[nH]c(-c3ccccc3)cc2nn1-c1ccccc1
(3) Cc1cc2[nH]nc(N)c2c(N2CCCCC2)n1
(4) COCCNc1nc(C)cc2nn(-c3ccccc3)c(N)c12
(5) Cc1cc2c(c(N)nn2C)c(N2CC[C@H](O)C2)n1
# ascending order, key=inhibition Field: ranking. Enter the labels in the order requested.
4, 5, 1, 3, 2
(4: 0%, 5: 1%, 1: 9%, 3: 48%, 2: 90%)

(a) COc1ccc(-c2c(C)[nH]c(=O)c3c(N)nn(C)c23)cc1
(b) COc1ccc(-c2cc3[nH]nc(N)c3c(=O)[nH]2)cc1
Of a versus b , which is the one with smaller reported inhibition? // output: label of the selected item
a
(a: 11%, b: 54%)

====

# TEST_SYSTEM: Mitogen-activated protein kinase 1 (Homo sapiens) (UniProt P28482)
# Sequence (P28482 whole entry): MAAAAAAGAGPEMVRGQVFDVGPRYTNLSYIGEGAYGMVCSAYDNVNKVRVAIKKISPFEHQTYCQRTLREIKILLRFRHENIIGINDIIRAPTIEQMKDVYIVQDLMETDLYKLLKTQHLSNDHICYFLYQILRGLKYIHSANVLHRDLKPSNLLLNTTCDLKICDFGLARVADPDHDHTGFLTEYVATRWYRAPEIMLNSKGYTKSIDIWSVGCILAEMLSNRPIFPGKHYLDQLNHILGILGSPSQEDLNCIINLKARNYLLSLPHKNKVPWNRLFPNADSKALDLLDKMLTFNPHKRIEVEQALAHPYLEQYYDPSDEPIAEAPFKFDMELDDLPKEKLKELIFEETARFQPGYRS
# TEST: Inhibition of ERK2 at 30 uM by microfluidic mobility shift assay
ENDPOINT_LABEL: inhibition (%)

Reference set (5 entries):
INSERT INTO assay_data (chemical_structure, test_system, endpoint_label, unit_annotation, observed) VALUES
  ('Cn1nc(N)c2cnc(-c3ccccc3)cc21', 'Mitogen-activated protein kinase 1 (Homo sapiens) (UniProt P28482)', 'inhibition', '%', 4),
  ('CC(=O)Nc1nn(C)c2cc(-c3ccccc3)[nH]c(=O)c12', 'Mitogen-activated protein kinase 1 (Homo sapiens) (UniProt P28482)', 'inhibition', '%', 2),
  ('Nc1n[nH]c2cc(-c3cccs3)[nH]c(=O)c12', 'Mitogen-activated protein kinase 1 (Homo sapiens) (UniProt P28482)', 'inhibition', '%', 15),
  ('Nc1n[nH]c2cc(CC3CCNCC3)[nH]c(=O)c12', 'Mitogen-activated protein kinase 1 (Homo sapiens) (UniProt P28482)', 'inhibition', '%', -2),
  ('Nc1n[nH]c2cc(-c3cccnc3)[nH]c(=O)c12', 'Mitogen-activated protein kinase 1 (Homo sapiens) (UniProt P28482)', 'inhibition', '%', 14);

(I) Cc1cc2[nH]nc(N)c2c(=O)[nH]1
(II) Cc1cc2c(cn1)c(N)nn2C
(III) Cc1cc2c(c(N)nn2C)c(N2CCOCC2)n1
(IV) CN1CCN(c2ccc(-c3cc4c(c(N)nn4C)c(=O)[nH]3)cc2)CC1
Sort the 4 compounds by inhibition; largest first, smallest last. Field: ranking. Enter the labels in the order requested.
IV, II, I, III

====

# TEST_SYSTEM: Mitogen-activated protein kinase 3 (Homo sapiens)
# TEST: Inhibition of ERK1 at 30 uM by microfluidic mobility shift assay
ENDPOINT_LABEL: inhibition (%)

Reference set (8 entries):
INSERT INTO assay_data (chemical_structure, endpoint_label, observed) VALUES
  ('Cc1cc2c(c(N)nn2C)c(N2CCCCC2)n1', 'inhibition', 13),
  ('CC(=O)Nc1nn(C)c2cc(-c3ccccc3)[nH]c(=O)c12', 'inhibition', 3),
  ('COc1ccc(S(=O)(=O)Nc2nn(C)c3cc(C)[nH]c(=O)c23)c(OC)c1', 'inhibition', 4),
  ('Nc1n[nH]c2cc(-c3ccncc3)[nH]c(=O)c12', 'inhibition', 57),
  ('COc1ccc(-c2cc3nn(-c4ccccc4)c(N)c3c(=O)[nH]2)cc1', 'inhibition', 8),
  ('COc1ccc(-c2cc3[nH]nc(N)c3c(=O)[nH]2)cc1', 'inhibition', 13),
  ('Cc1cc2nc(N)nc(N)c2c(=O)[nH]1', 'inhibition', 9),
  ('COCCNc1nc(-c2ccccc2)cc2c1c(N)nn2C', 'inhibition', 3);

(A) CC(C)(C)c1cc2nn(-c3ccccc3)c(N)c2c(=O)[nH]1
(B) Nc1n[nH]c2cc(-c3ccccn3)[nH]c(=O)c12
(C) Nc1c2c(=O)[nH]c(-c3ccccc3)cc2nn1-c1ccccn1
(D) Nc1n[nH]c2c3c([nH]c(=O)c12)CCCC3
(E) CC(=O)Nc1nn(C)c2cc(-c3ccc(N4CCN(C)CC4)cc3)[nH]c(=O)c12
Sort the 5 compounds by inhibition; largest first, smallest last. Field: ranking. Enter the labels in the order requested.
A, B, D, E, C

(I) COC(=O)CCc1c(C)[nH]c(=O)c2c(N)nn(C)c12
(II) COc1cccc(-c2cc3c(c(N)nn3C)c(=O)[nH]2)c1
Of I versus II , which is the one with smaller reported inhibition? // output: label of the selected item
I

(A) COc1ccc(-c2c(C)[nH]c(=O)c3c(N)nn(C)c23)cc1
(B) Cc1cc2c(c(NC(=O)Nc3ccccc3)nn2C)c(=O)[nH]1
(C) COc1cccc(-c2cc3[nH]nc(N)c3c(=O)[nH]2)c1
(D) CN1CCN(c2ccc(-c3cc4nn(-c5ccccc5)c(N)c4c(=O)[nH]3)cc2)CC1
# ascending order, key=inhibition Field: ranking. Enter the labels in the order requested.
D, B, A, C
